# assay info: qHTS Assay for Lipid Storage Modulators (AID 1519)
# reported conditions: Drosophila S3 cells, BODIPY lipid droplet/cell ratio, laser cytometry; measured here: lipid channel max response; cells loaded with oleic acid
Results filed as inconclusive are left out.
reported property: max response (%)
One number for each entry, in %.

Before answering, review these 8 worked examples.
smiles string	max response (%)
CNc1cc(-c2ccccc2C(F)(F)F)ncn1	21.2
COc1ccc(Oc2ncc3nc(-c4cn(C)c5ccccc45)c(=O)n(C4CC4)c3n2)cc1	3.07
CN(Cc1ccco1)c1ncnc2ccc(-c3cccnc3)cc12	-5.56
COc1ccc(-n2c(=O)c(-c3ccccc3)nc3cnc(N4CCN(C)CC4)nc32)cc1	20
COc1ccc(NC(=O)N2CCCC3(CCN(C(=O)c4csnn4)CC3)C2)cc1	22.4
O=C(Nc1ccccc1)Nc1ccccc1	11.7
COC(=O)N1CCC[C@@]2(CCN(c3ccccn3)C2)C1	11
O=C(Nc1ccccc1)N1CCCC2(CCN(C(=O)c3ccco3)CC2)C1	20.3

Could you now look at the following compound, please?
Give the measured max response of CN(C)c1ncc2ncc(=O)n(C[C@H]3CCCO3)c2n1 .
-4.59

###

# assayed target: Dual specificity protein kinase CLK4 (Homo sapiens)
# assay info: qHTS Assay for Inhibitors of CDC-like Kinase 4 (ADP-Glo Assay) (AID 1771); further: nearly all actives have a fitted effect of over 70% in size; further: potency means the concentration at half of the fitted maximal effect
# reported conditions: recombinant CLK4, ADP-Glo luminescence; series mostly up to 80 µM
Inconclusive results are not listed. Activity calls are given as the source filed them. The call rests on the fitted dose curve; in most records, active means well fitted inhibition curve with a large enough effect; inconclusive means small, poorly fitted or top-dose-only effect; inactive means flat fitted curve, though single readings scatter.
reported property: Potency

smiles string	assayed target	Potency
COc1ccc(-c2nc3cnc(N4CCOCC4)nc3n(-c3ccccc3)c2=O)cc1	Dual specificity protein kinase CLK4 (Homo sapiens)	inactive
Cc1noc(C)c1-c1ccc2ncnc(N3CCN(C)CC3)c2c1	Dual specificity protein kinase CLK4 (Homo sapiens)	10 µM (active)
COCCn1c(=O)cnc2cnc(Nc3ccccc3)nc21	Dual specificity protein kinase CLK4 (Homo sapiens)	3.16 µM (active)
COc1ccc(-c2nc3cnc(N4CCN(C)CC4)nc3n(Cc3cccc(OC)c3)c2=O)cc1	Dual specificity protein kinase CLK4 (Homo sapiens)	inactive
Cc1nc2cnc(N3CCN(C)CC3)nc2n(C)c1=O	Dual specificity protein kinase CLK4 (Homo sapiens)	inactive
CNc1ccnc(-c2ccccc2OC)n1	Dual specificity protein kinase CLK4 (Homo sapiens)	inactive
Cc1ccccc1-c1nccc(Nc2ccc(F)cc2)n1	Dual specificity protein kinase CLK4 (Homo sapiens)	inactive
c1cncc(CNc2ncncc2-c2cccnc2)c1	Dual specificity protein kinase CLK4 (Homo sapiens)	inactive
O=c1cnc2cnc(Nc3ccccc3)nc2n1C1CC1	Dual specificity protein kinase CLK4 (Homo sapiens)	2.51 µM (active)
Cc1nc2cnc(N3CCOCC3)nc2n(C[C@H]2CCCO2)c1=O	Dual specificity protein kinase CLK4 (Homo sapiens)	inactive

Please give Potency, item by item, for the list that follows.
1. O=c1c(-c2ccc(F)cc2)nc2cnc(N3CCNCC3)nc2n1C1CC1
2. COc1ccc(Oc2ncc3nc(C)c(=O)n(-c4ccccc4)c3n2)cc1

1: inactive; 2: inactive

###

# assay info: qHTS Assay for Lipid Storage Modulators (AID 1519); on activity change, negative = inhibition: on the % scale 0 is the no-effect control and ±100 the full control effect
# reported conditions: Drosophila S3 cells, BODIPY lipid droplet/cell ratio, laser cytometry; at 57.5 µM (top of the series); cells loaded with oleic acid
Inconclusive results are not listed.
reported property: activity change, negative = inhibition (%)
Give bare numbers, in %.

Before answering, review these 5 worked examples.
smiles string	unit text	activity change, negative = inhibition
O=C(c1ccco1)N1CCC[C@@]2(CCN(Cc3nccs3)C2)C1	%	4.23
O=C(c1cccc(F)c1)N1CCC2(CC1)CCN(c1ccccc1)CC2	%	3.88
COc1ncc2nc(-c3ccccc3)c(=O)n(-c3ccccc3)c2n1	%	3.9
O=C(c1cc(C(F)(F)F)cc(C(F)(F)F)c1)N1CCC2(CC1)CN(c1ccccc1)C2	%	-8.64
COc1ccccc1CNc1cc(-c2c(C)noc2C)ncn1	%	10.8

Could you now look at the following compound, please?
Give the measured activity change, negative = inhibition of COCC(=O)N1CCC2(CC1)CN(C(=O)Nc1cccc(F)c1)C2 .
8.39

###

# assay info: SW1088 Cancer Cell Toxicity qHTS against the NCATS CANVASS Library (AID 1347350); further: potency means the concentration at half of the fitted maximal effect; nearly all actives have a fitted effect of over 75% in size
# reported conditions: SW1088 viability, CellTiter-Glo luminescence, 72 h; series mostly up to 38.3 µM
Inconclusive results are not listed. Calls of active or inactive are those of the source. The call rests on the fitted dose curve; in most records, active means well fitted cell-killing curve with a large enough effect; inconclusive means small, poorly fitted or top-dose-only effect; inactive means flat fitted curve, though single readings scatter.
The reply should name one outcome from 1 = active, -1 = inactive

What was the test verdict on COc1cc(O)c(C(=O)[C@@H]2[C@H](CC=C(C)C)C(C)=CC[C@H]2c2ccccc2)c(O)c1 ?
1

###

# assay info: Primary qHTS for inhibitors of nuclear receptor binding SET domain protein 2 (NSD2) in an isogenic RCH-ACV NSD2 p.E1099K mutant (9B) (AID 1645876); further: nearly all actives have a fitted effect of over 70% in size
# reported conditions: RCH-ACV (leukaemia line) NSD2 E1099K (9B) viability, CellTiter-Glo, 72 h; series mostly up to 44.9 µM
Results filed as inconclusive are left out. Activity calls are given as the source filed them. Calls follow the shape of the dose curve; as a rule, active = well fitted inhibition curve with a large enough effect; inconclusive = small, poorly fitted or top-dose-only effect; inactive = flat fitted curve, though single readings scatter. Where a SMILES comes first, the peptide text is derived from it. [ ]: non-standard residue; d: D form.
The reply should name one outcome from True (active), False (inactive)

compound	label
C[C@H](CCC(=O)O)[C@H]1CC[C@H]2[C@@H]3[C@@H](O)C[C@@H]4C[C@H](O)CC[C@]4(C)[C@H]3CC[C@]12C	False
CC(=NNC(=O)c1cccc(S(=O)(=O)N2CCOCC2)c1)c1cc(Cl)ccc1O	True
O=C(CCCc1ccc2cccnc2n1)NCc1cc(-c2ccc(F)c(C(F)(F)F)c2)no1	False

What was the test verdict on CS[C@H]1SC[C@@H]2C(=O)N(C)[C@H](C(C)C)C(=O)OC[C@H](NC(=O)c3cnc4ccccc4n3)C(=O)N[C@H](C)C(=O)N(C)[C@H]1C(=O)N(C)[C@H](C(C)C)C(=O)OC[C@H](NC(=O)c1cnc3ccccc3n1)C(=O)N[C@H](C)C(=O)N2C ?
True

Now try CN1CCN(c2ccc(Nc3ncc4cc(C#N)c(=O)n(C5CCCC5)c4n3)cc2)CC1 .
True

Now try CC(C)C[C@@H]1NC(=O)[C@@H](C(C)C)NC(=O)[C@@H]2CCCN2C(=O)[C@@H](CC(=O)O)NC(=O)[C@@H](Cc2c[nH]c3ccccc23)NC1=O (cyclo(L[dW][dD]P[dV])) .
False

###

# assay info: qHTS drug screen for cell cycle checkpoint inhibitors in PARPi-resistant BRCA-mutant ovarian cancer cell lines. (AID 1963452)
# reported conditions: PEO1/OlaR viability, CellTiter-Glo luminescence, 96 h; measured here: PEO4 Z-AUC; stronger effect = lower value
reported property: Z-AUC
Numbers only.

Before answering, review these 4 worked examples.
compound	reported property	endpoint value
CCN(CC)C(=O)Cc1csc(NS(=O)(=O)c2cccc(Cl)c2C)n1	Z-AUC	0.952
COC1CC(C(=O)c2ccc3c(N)ncc(-c4ccc(-c5cnn(C)c5)cc4)c3n2)C1 (stereo not given)	Z-AUC	-1.1
C=CCN(/C=C1\C(=O)O[C@@H](COC)[C@]2(C)C1=C(O)C(=O)C1=C2[C@@H](OC(C)=O)C[C@]2(C)C(=O)CC[C@H]12)CC=C	Z-AUC	0.306
C[C@H](Nc1nc(N[C@H](C)C(F)(F)F)nc(-c2cccc(Cl)n2)n1)C(F)(F)F	Z-AUC	0.804

Give the measured Z-AUC of N[C@@H]1CN(c2c(F)cc3c(=O)c(C(=O)O)cn([C@@H]4C[C@@H]4F)c3c2Cl)CC12CC2 .
0.877

###

# assayed target: Dual specificity protein kinase CLK4 (Homo sapiens)
# assay info: qHTS Assay for Inhibitors of CDC-like Kinase 4 (ADP-Glo Assay) (AID 1771); further: nearly all actives have a fitted effect of over 70% in size
# reported conditions: recombinant CLK4, ADP-Glo luminescence; series mostly up to 80 µM
Inconclusive results are not listed. Active and inactive are the calls of the source. The call rests on the fitted dose curve; in most records, active means well fitted inhibition curve with a large enough effect; inconclusive means small, poorly fitted or top-dose-only effect; inactive means flat fitted curve, though single readings scatter.
The reply should name one outcome from 1 (active), 0 (inactive)

smiles string	label
c1nc(N2CCNCC2)c2cc(-c3ccoc3)ccc2n1	1
COCCn1c(=O)c(-c2cn(C)c3ccccc23)nc2cnc(Oc3cccc(Cl)c3)nc21	0
CN(C)c1ncc2nc(-c3ccccc3)c(=O)n(C[C@H]3CCCO3)c2n1	0
COc1ccc(-n2c(=O)cnc3cnc(OC)nc32)cc1	1
COc1ncc2nc(-c3ccccc3)c(=O)n(C)c2n1	0

# next compound below
What was the test verdict on N#Cc1cccc(-c2nc3cnc(N4CCOCC4)nc3n(C[C@H]3CCCO3)c2=O)c1 ?
0

###

# assay info: AP1 Signaling Pathway (AID 357);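 further: ME-180 reporter cells stimulated with EGF at its EC50 level; on the % scale 0 is the no-effect control and ±100 the full control effect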
# reported conditions: ME-180 (cervical carcinoma) AP-1-bla reporter, EGF-induced, beta-lactamase ratio, 5 h; at 7.69 µM (top of the series) unless noted
Records with an inconclusive call do not appear. Calls of active or inactive are those of the source. The call rests on the fitted dose curve; in most records, active means well fitted curve in either direction with a large enough effect (not every such curve was filed as active); inconclusive means small, poorly fitted or top-dose-only effect, or another doubt; inactive means flat fitted curve, though single readings scatter.
reported property: activity change, negative = inhibition

smiles string	activity change, negative = inhibition
O=c1c(-c2ccc(Cl)cc2)nc2cnc(N3CCOCC3)nc2n1C[C@H]1CCCO1	-9.09% (inactive)

Please give activity change, negative = inhibition, item by item, for the list that follows.
1. Clc1ccccc1-c1cncnc1NCc1cccs1
2. CN(C)Cc1ccccc1-c1cc(Nc2ccccc2)ncn1
3. Cn1c(=O)c(CCc2ccccc2)nc2cnc(OCc3ccccc3)nc21

-10.1% (inactive)
1.09% (inactive)
-26% (inactive)
